Cited source: patent US6794386B2

# SYSTEM: VLA-4 (Homo sapiens, UniProt P05556+P13612)
# Construct: host or cells: Jurkat clone E6-1
# Sequence (P13612 34-1032): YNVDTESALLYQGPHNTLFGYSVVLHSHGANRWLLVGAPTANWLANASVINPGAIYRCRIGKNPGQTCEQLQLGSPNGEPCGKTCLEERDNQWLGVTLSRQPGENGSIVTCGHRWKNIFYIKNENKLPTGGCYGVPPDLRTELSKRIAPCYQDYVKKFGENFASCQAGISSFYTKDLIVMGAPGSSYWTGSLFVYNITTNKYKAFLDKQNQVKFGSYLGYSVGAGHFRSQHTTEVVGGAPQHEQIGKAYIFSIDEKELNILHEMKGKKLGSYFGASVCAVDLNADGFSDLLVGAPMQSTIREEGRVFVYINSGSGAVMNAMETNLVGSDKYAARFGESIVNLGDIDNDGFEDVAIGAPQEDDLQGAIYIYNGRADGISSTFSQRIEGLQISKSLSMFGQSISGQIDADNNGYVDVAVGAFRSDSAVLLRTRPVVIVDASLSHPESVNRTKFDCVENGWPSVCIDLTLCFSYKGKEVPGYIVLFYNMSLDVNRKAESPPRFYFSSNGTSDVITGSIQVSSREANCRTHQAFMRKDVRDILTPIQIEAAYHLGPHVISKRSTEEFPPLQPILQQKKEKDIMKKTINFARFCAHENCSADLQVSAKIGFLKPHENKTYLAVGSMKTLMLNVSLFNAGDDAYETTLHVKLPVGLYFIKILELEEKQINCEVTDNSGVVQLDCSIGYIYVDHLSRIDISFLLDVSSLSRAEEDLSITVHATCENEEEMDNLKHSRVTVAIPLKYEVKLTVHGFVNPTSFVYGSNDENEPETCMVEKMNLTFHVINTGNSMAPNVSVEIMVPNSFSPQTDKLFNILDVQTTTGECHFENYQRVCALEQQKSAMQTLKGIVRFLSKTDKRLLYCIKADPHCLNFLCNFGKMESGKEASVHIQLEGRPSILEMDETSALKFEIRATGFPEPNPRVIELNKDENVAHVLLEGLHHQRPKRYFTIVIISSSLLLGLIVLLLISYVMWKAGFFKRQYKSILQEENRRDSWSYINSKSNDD
# Sequence (P05556 21-798): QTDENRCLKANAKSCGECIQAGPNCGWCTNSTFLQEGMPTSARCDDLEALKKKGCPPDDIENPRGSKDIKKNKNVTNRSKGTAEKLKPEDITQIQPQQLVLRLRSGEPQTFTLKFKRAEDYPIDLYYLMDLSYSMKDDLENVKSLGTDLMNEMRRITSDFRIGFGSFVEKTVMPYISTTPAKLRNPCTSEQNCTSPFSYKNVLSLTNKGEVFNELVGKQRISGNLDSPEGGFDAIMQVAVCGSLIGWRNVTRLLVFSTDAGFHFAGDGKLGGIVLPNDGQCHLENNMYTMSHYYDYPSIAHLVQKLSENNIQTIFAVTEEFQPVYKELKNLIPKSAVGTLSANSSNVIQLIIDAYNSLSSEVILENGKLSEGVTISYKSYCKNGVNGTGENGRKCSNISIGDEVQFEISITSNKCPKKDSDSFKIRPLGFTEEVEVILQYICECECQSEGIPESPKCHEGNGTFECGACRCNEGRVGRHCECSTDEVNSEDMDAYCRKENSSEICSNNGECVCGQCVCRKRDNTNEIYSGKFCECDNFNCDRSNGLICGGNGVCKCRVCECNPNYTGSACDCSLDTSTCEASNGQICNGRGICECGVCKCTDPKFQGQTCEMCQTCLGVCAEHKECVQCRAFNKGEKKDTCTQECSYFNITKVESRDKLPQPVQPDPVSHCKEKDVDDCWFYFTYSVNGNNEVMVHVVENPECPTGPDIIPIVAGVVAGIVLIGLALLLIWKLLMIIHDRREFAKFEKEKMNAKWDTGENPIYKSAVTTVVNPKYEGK
# ASSAY TEXT: Adhesion of Jurkat cells to immobilized VCAM-1 (domains 1-3)
# Type: cell-based
# DETAILS: adhesion of CFSE-labeled Jurkat cells to recombinant human VCAM-1 (domains 1-3) coated plates; compounds as yielded by solid phase synthesis, purity about 40-90%; read-out: IC50
pIC50: −log10 of the molar value.
# pIC50 listing for each entry below

Example entries and their recorded answers appear below.
COc1ccccc1-c1ccc(C[C@H](NC(=O)C2CCCN(c3ncnc(N4CCOCC4)c3F)C2)C(=O)O)cc1 (stereo partly drawn) = 5.00 to 5.70
O=C(NCC(c1ccccc1)c1ccccc1)Nc1ccc(C[C@H](NC(=O)C2CCCN(S(=O)(=O)c3cccs3)C2)C(=O)O)cc1 (stereo partly drawn) = 5.00 to 5.70

Request the reported pIC50 associated with O=C(N[C@@H](Cc1ccc(NC(=O)N2CCN(c3ccccc3)CC2)cc1)C(=O)O)C1CCCN(S(=O)(=O)Cc2ccccc2)C1 (stereo partly drawn)
5.70 to 6.30

###

# SYSTEM: VLA-4 (Homo sapiens, UniProt P05556+P13612)
# Construct: host or cells: Jurkat clone E6-1
# ASSAY TEXT: Adhesion of Jurkat cells to immobilized VCAM-1 (domains 1-3)
# Format: cell-based
# DETAILS: adhesion of CFSE-labeled Jurkat cells to recombinant human VCAM-1 (domains 1-3) coated plates; compounds as yielded by solid phase synthesis, purity about 40-90%; read-out: IC50
pIC50: −log10 of the molar value.
EXPERIMENTAL ENDPOINT: pIC50

O=C(N[C@@H](Cc1ccc(NC(=O)N2CCN(c3ccccc3)CC2)cc1)C(=O)O)C1CCCN(c2ncnc(N3CCSCC3)c2F)C1 (stereo partly drawn) = 5.70 to 6.30

Query (molecule): CS(=O)(=O)N1CCCC(C(=O)N[C@@H](Cc2ccc(NC(=O)N3CCN(c4ccccc4)CC3)cc2)C(=O)O)C1 (stereo partly drawn) ; field requested: pIC50
5.70 to 6.30

// returns reported pIC50 for input CN1CCN(C(=O)Nc2ccc(C[C@H](NC(=O)C3CCCN(c4ncnc(N5CCc6ccccc6C5)c4F)C3)C(=O)O)cc2)CC1 (stereo partly drawn)
5.00 to 5.70

###

# SYSTEM: VLA-4 (Homo sapiens, UniProt P05556+P13612)
# Construct: host or cells: Jurkat clone E6-1
# ASSAY TEXT: Adhesion of Jurkat cells to immobilized VCAM-1 (domains 1-3)
# Assay type: cell-based
# DETAILS: adhesion of CFSE-labeled Jurkat cells to recombinant human VCAM-1 (domains 1-3) coated plates; compounds as yielded by solid phase synthesis, purity about 40-90%; read-out: IC50
EXPERIMENTAL ENDPOINT: IC50

Some entries whose results are on file:
O=C(N[C@@H](Cc1ccc(NC(=O)N2CCc3ccccc3C2)cc1)C(=O)O)C1CCCN(c2ncnc(NCc3ccncc3)c2F)C1 (stereo partly shown) [Example 5.44] = 500 to 2000 nM
COc1ccccc1C(=O)N1CCCC(C(=O)N[C@@H](Cc2ccc(NC(=O)N3CCOCC3)cc2)C(=O)O)C1 (stereo partly shown) [Example 4.22] = ≤ 500 nM
O=C(N[C@@H](Cc1ccc(-c2cc(Cl)ccc2Cl)cc1)C(=O)O)C1CCCN(c2ncnc(N3CCNCC3)c2F)C1 (stereo partly shown) [Example 2.2] = ≤ 500 nM

State the recorded IC50 for this entry: O=C(N[C@@H](Cc1ccc(-c2ccc(Cl)cc2Cl)cc1)C(=O)O)C1CCCN(C(=O)OC2CCCC2)C1 (stereo partly shown) [Example 1.48]
2000 to 10000 nM

###

# SYSTEM: VLA-4 (Homo sapiens, UniProt P05556+P13612)
# Construct: host or cells: Jurkat clone E6-1
# ASSAY TEXT: Adhesion of Jurkat cells to immobilized VCAM-1 (domains 1-3)
# Assay type: cell-based
# DETAILS: adhesion of CFSE-labeled Jurkat cells to recombinant human VCAM-1 (domains 1-3) coated plates; compounds as yielded by solid phase synthesis, purity about 40-90%; read-out: IC50
EXPERIMENTAL ENDPOINT: IC50

In the examples that follow, each entry is paired with its recorded IC50.
Cc1ccc(S(=O)(=O)N2CCCC(C(=O)N[C@@H](Cc3ccc(-c4ccccc4C)cc3)C(=O)O)C2)cc1 (some centres unmarked) = 500 to 2000 nM
O=C(N[C@@H](Cc1ccc(NC(=O)N2CCCCC2)cc1)C(=O)O)C1CCCN(S(=O)(=O)Cc2ccccc2)C1 (some centres unmarked) = 500 to 2000 nM
O=C(N[C@@H](Cc1ccc(NC(=O)N2CCN(c3ccccc3)CC2)cc1)C(=O)O)C1CCCN(C(=O)c2ccccc2F)C1 (some centres unmarked) = ≤ 500 nM

Recall the recorded IC50 for CN1CCN(C(=O)Nc2ccc(C[C@H](NC(=O)C3CCCN(c4ncnc(NCc5cccnc5)c4F)C3)C(=O)O)cc2)CC1 (some centres unmarked) with VLA-4 (Homo sapiens, UniProt P05556+P13612) and state it.
2000 to 10000 nM

Hi! What's the reported IC50 for CN1CCN(C(=O)Nc2ccc(C[C@H](NC(=O)C3CCCN(c4ncnc(NCc5ccncc5)c4F)C3)C(=O)O)cc2)CC1 (some centres unmarked) on VLA-4 (Homo sapiens, UniProt P05556+P13612)?
500 to 2000 nM

###

# SYSTEM: VLA-4 (Homo sapiens, UniProt P05556+P13612)
# Construct: host or cells: Jurkat clone E6-1
# ASSAY TEXT: Adhesion of Jurkat cells to immobilized VCAM-1 (domains 1-3)
# Type: cell-based
# Design: scale not given here
# DETAILS: adhesion of CFSE-labeled Jurkat cells to recombinant human VCAM-1 (domains 1-3) coated plates; compounds as yielded by solid phase synthesis, purity about 40-90%
EXPERIMENTAL ENDPOINT: IC50

Worked examples, 6 compounds total:
Cc1ccccc1-c1ccc(C[C@H](NC(=O)C2CCCN(S(=O)(=O)c3cc(Cl)cc(Cl)c3)C2)C(=O)O)cc1 (stereo partly shown) [Example 1.92] = C-D
Cc1ccccc1-c1ccc(C[C@H](NC(=O)C2CCCN(c3ncnc(N4CCNCC4)c3F)C2)C(=O)O)cc1 (stereo partly shown) [Example 2.29] = C-D
CC1(C)C2CCC1(CS(=O)(=O)N1CCCC(C(=O)N[C@@H](Cc3ccc(-c4ccc(Cl)cc4Cl)cc3)C(=O)O)C1)C(=O)C2 (stereo partly shown) [Example 1.93] = C-D
Cc1ccc(-c2ccc(C[C@H](NC(=O)C3CCCN(S(=O)(=O)c4ccc(C)cc4)C3)C(=O)O)cc2)cc1 (stereo partly shown) [Example 1.66] = C-D
Cc1ccc(-c2ccc(C[C@H](NC(=O)C3CCCN(C(=O)c4ccc5c(c4)OCO5)C3)C(=O)O)cc2)cc1 (stereo partly shown) [Example 1.20] = C-D
COc1ccccc1C(=O)N1CCCC(C(=O)N[C@@H](Cc2ccc(-c3ccccc3)cc2)C(=O)O)C1 (stereo partly shown) [Example 1.14] = C-D

Given the entry Cc1ccccc1-c1ccc(C[C@H](NC(=O)C2CCCN(c3ncnc(N4CCCCC4)c3F)C2)C(=O)O)cc1 (stereo partly shown) [Example 2.26] , what IC50 was observed with VLA-4 (Homo sapiens, UniProt P05556+P13612)?
C-D

###

# SYSTEM: VLA-4 (Homo sapiens, UniProt P05556+P13612)
# Construct: host or cells: Jurkat clone E6-1
# ASSAY TEXT: Adhesion of Jurkat cells to immobilized VCAM-1 (domains 1-3)
# Assay type: cell-based
# Parameters: scale not given here
# DETAILS: adhesion of CFSE-labeled Jurkat cells to recombinant human VCAM-1 (domains 1-3) coated plates; compounds as yielded by solid phase synthesis, purity about 40-90%
EXPERIMENTAL ENDPOINT: IC50

O=C(N[C@@H](Cc1ccc(-c2cc(Cl)ccc2Cl)cc1)C(=O)O)C1CCCN(S(=O)(=O)c2ccccc2C(F)(F)F)C1 (stereo partly drawn) = C-D
O=C(N[C@@H](Cc1ccc(-c2ccc(Cl)c(Cl)c2)cc1)C(=O)O)C1CCCN(c2ncnc(NCCN3CCCC3)c2F)C1 (stereo partly drawn) = C-D
COC(=O)c1ccccc1S(=O)(=O)N1CCCC(C(=O)N[C@@H](Cc2ccc(-c3ccccc3)cc2)C(=O)O)C1 (stereo partly drawn) = C-D

###

Entries annotated with measured pIC50
# SYSTEM: VLA-4 (Homo sapiens, UniProt P05556+P13612)
# Construct: host or cells: Jurkat clone E6-1
# ASSAY TEXT: Adhesion of Jurkat cells to immobilized VCAM-1 (domains 1-3)
# Assay type: cell-based
# DETAILS: adhesion of CFSE-labeled Jurkat cells to recombinant human VCAM-1 (domains 1-3) coated plates; compounds as yielded by solid phase synthesis, purity about 40-90%; read-out: IC50
pIC50: −log10 of the molar value.

Below, each entry is followed by its recorded pIC50 result.
COc1ccccc1C(=O)N1CCCC(C(=O)N[C@@H](Cc2ccc(NC(=O)NCC(c3ccccc3)c3ccccc3)cc2)C(=O)O)C1 (stereo partly drawn) [Example 4.15] = 5.70 to 6.30
O=C(N[C@@H](Cc1ccc(NC(=O)N2CCCCC2)cc1)C(=O)O)C1CCCN(C(=O)c2ccc(OC(F)(F)F)cc2)C1 (stereo partly drawn) [Example 4.4] = 5.00 to 5.70
CN1CCN(C(=O)Nc2ccc(C[C@H](NC(=O)C3CCCN(c4ncnc(N5CCCCCC5)c4F)C3)C(=O)O)cc2)CC1 (stereo partly drawn) [Example 5.20] = 5.70 to 6.30
Cc1ccccc1-c1ccc(C[C@H](NC(=O)C2CCCN(C(=O)c3cccc(Cl)c3)C2)C(=O)O)cc1 (stereo partly drawn) [Example 1.31] = 5.00 to 5.70
O=C(N[C@@H](Cc1ccc(NC(=O)N2CCN(c3ccccc3)CC2)cc1)C(=O)O)C1CCCN(c2ncnc(NCCc3c[nH]cn3)c2F)C1 (stereo partly drawn) [Example 5.6] = 5.00 to 5.70
COc1ccccc1-c1ccc(C[C@H](NC(=O)C2CCCN(c3ncnc(N)c3F)C2)C(=O)O)cc1 (stereo partly drawn) [Example 5.4] = 5.70 to 6.30

Write down the reported pIC50 of O=C(N[C@@H](Cc1ccc(-c2cc(Cl)ccc2Cl)cc1)C(=O)O)C1CCCN(C(=O)OC2CCCC2)C1 (stereo partly drawn) [Example 1.5] , test system: VLA-4 (Homo sapiens, UniProt P05556+P13612).
≥ 6.30

So what pIC50 did Cc1ccc(-c2ccc(C[C@H](NC(=O)C3CCCN(c4ncnc(NCc5ccccn5)c4F)C3)C(=O)O)cc2)cc1 (stereo partly drawn) [Example 2.4] get with VLA-4 (Homo sapiens, UniProt P05556+P13612)?
5.00 to 5.70

// fetch VLA-4 (Homo sapiens, UniProt P05556+P13612) pIC50 for O=C(N[C@@H](Cc1ccc(NC(=O)N2CCOCC2)cc1)C(=O)O)C1CCCN(c2ncnc(NCC3CCCCC3)c2F)C1 (stereo partly drawn) [Example 5.35]
≥ 6.30

API: value(readout=pIC50, system=VLA-4 (Homo sapiens, UniProt P05556+P13612)) for record O=C(N[C@@H](Cc1ccc(NC(=O)N2CCc3ccccc3C2)cc1)C(=O)O)C1CCCN(C(=O)Cc2cccs2)C1 (stereo partly drawn) [Example 4.9]
≥ 6.30

// map O=C(N[C@@H](Cc1ccc(NC(=O)N2CCN(c3ccccc3)CC2)cc1)C(=O)O)C1CCCN(C(=O)Cc2cccs2)C1 (stereo partly drawn) [Example 4.18] to recorded pIC50 (system: VLA-4 (Homo sapiens, UniProt P05556+P13612))
≥ 6.30

Query for VLA-4 (Homo sapiens, UniProt P05556+P13612): what pIC50 does the record show for Nc1ncnc(N2CCCC(C(=O)N[C@@H](Cc3ccc(NC(=O)N4CCN(c5ccccc5)CC4)cc3)C(=O)O)C2)c1F (stereo partly drawn) [Example 5.42] ?
≥ 6.30

Report pIC50 for COc1ccc(CC(=O)N2CCCC(C(=O)N[C@H](Cc3ccc(NC(=O)N4CCc5ccccc5C4)cc3)C(=O)O)C2)cc1 (stereo partly drawn) [Example 4.23] tested on VLA-4 (Homo sapiens, UniProt P05556+P13612).
5.70 to 6.30

Entry CN1CCN(C(=O)Nc2ccc(C[C@H](NC(=O)C3CCCN(S(C)(=O)=O)C3)C(=O)O)cc2)CC1 (stereo partly drawn) [Example 4.5] , system VLA-4 (Homo sapiens, UniProt P05556+P13612): what pIC50 was measured?
5.70 to 6.30

Report pIC50 for COc1ccccc1-c1ccc(C[C@H](NC(=O)C2CCCN(c3ncnc(NC4CCN(Cc5ccccc5)CC4)c3F)C2)C(=O)O)cc1 (stereo partly drawn) [Example 5.2] tested on VLA-4 (Homo sapiens, UniProt P05556+P13612).
5.00 to 5.70

Request body: readout pIC50, system VLA-4 (Homo sapiens, UniProt P05556+P13612), query O=C(N[C@@H](Cc1ccc(NC(=O)N2CCOCC2)cc1)C(=O)O)C1CCCN(C(=O)NC2CCCCC2)C1 (stereo partly drawn) [Example 4.58] . Return the value.
5.70 to 6.30

# value lookup — system VLA-4 (Homo sapiens, UniProt P05556+P13612), readout pIC50, item CCCNc1ncnc(N2CCCC(C(=O)N[C@@H](Cc3ccc(-c4ccccc4OC)cc3)C(=O)O)C2)c1F (stereo partly drawn) [Example 2.55]
≥ 6.30
